pIC50 reference
assayedTarget: UniProt:P56817
Sequence (P56817 46-501): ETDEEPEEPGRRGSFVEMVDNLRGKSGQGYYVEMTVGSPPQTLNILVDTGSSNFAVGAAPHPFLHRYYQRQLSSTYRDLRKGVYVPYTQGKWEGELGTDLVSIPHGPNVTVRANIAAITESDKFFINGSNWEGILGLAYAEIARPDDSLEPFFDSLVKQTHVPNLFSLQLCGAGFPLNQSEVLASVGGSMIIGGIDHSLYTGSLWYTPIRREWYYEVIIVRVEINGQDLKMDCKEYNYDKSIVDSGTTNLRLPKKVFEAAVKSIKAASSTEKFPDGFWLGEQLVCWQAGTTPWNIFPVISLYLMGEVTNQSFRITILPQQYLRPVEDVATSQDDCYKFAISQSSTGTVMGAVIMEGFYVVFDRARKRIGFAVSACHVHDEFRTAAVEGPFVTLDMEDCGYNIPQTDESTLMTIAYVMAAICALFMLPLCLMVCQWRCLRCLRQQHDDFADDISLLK
assayName: β-secretase inhibitor assay: purified β-secretase, MBP-C125 SW substrate, ELISA
conditionDetails: concentration of inhibitor giving 50% inhibition of control activity
Scale for pIC50: -log10 of concentration given in mol/L; no unit attached.

Some compounds with known pIC50 results, for comparison:
- smilesEntry: "[Cu+2]"
  pIC50: 2.70
- smilesEntry: "[Zn+2]"
  pIC50: 2.52

Moving on to the next compound.
pIC50 for `c1cnc2c(c1)ccc1cccnc12` is 2.15
